Tested on: PANC-1 tumor model
Assay: Tissue distribution in nude mice (PANC-1 tumor model)
Assay type: in vivo, BALB/c nu/nu mice
Details: nude mice (PANC-1 tumor model), 1 h after injection
Procedure: BALB/c nu/nu mice (male, 5 weeks old) were purchased from Japan SLC (Shizuoka, Japan) and subcutaneously transplanted at a density of 1 × 10^7 cells/mouse. PANC-1 cells that reached the logarithmic growth phase were transplanted subcutaneously by mixing a 1 × 10^8 cells/mL cell suspension with an equivalent volume of Matrigel (Corning, Corning, NY, USA) to obtain 1 × 10^7 cells per mouse. Experiments were performed after the size of the transplanted tumor had exceeded 50 mm^3. […]
outcome measure: Tissue distribution, Spleen (%ID/g)
Answers are plain numbers, in %ID/g.

// known answers, use as guide
Report Tissue distribution, Spleen for CCOc1ccc(C[C@](C)(N)C(=O)O)cc1[211At] [^211At-AAMT-O-Et-L] please. 10.32

Give its Tissue distribution, Spleen value. Item: COc1ccc(C[C@](C)(N)C(=O)O)cc1[211At] [^211At-AAMT-O-Me-L] 4.34

Look at this molecule and give its reported Tissue distribution, Spleen. COc1ccc(C[C@@](C)(N)C(=O)O)cc1[211At] [^211At-AAMT-O-Me-D] 1.70

In the following, a different molecule is considered.
Reported Tissue distribution, Spleen for CCCOc1ccc(C[C@](C)(N)C(=O)O)cc1[211At] [^211At-AAMT-O-Pr-L] : what is it? 17.42

----------
Experiment: Tissue distribution in ICR mice (normal animals)
Format: in vivo
Conditions: 3 h after injection
outcome measure: Tissue distribution, Testis (%ID/g)
Give bare numbers, in %ID/g.

Using the record for CCOc1ccc(C[C@](C)(N)C(=O)O)cc1[211At] [^211At-AAMT-O-Et-L] , report its Tissue distribution, Testis. 1.20

Quick one: Tissue distribution, Testis of COc1ccc(C[C@](C)(N)C(=O)O)cc1[211At] [^211At-AAMT-O-Me-L] ? 0.52

For CCCOc1ccc(C[C@](C)(N)C(=O)O)cc1[211At] [^211At-AAMT-O-Pr-L] , what is its reported Tissue distribution, Testis? 2.34

For the next question, use this molecule.
Which measured Tissue distribution, Testis value corresponds to COc1ccc(C[C@@](C)(N)C(=O)O)cc1[211At] [^211At-AAMT-O-Me-D] ? 0.31

----------
Assay: Tissue distribution in ICR mice (normal animals)
Type: in vivo
Conditions: 1 h after injection
outcome measure: Tissue distribution, Colon (%ID/g)
Answers are plain numbers, in %ID/g.

// worked examples, Tissue distribution, Colon included
Could you share which Tissue distribution, Colon value was measured for COc1ccc(C[C@@](C)(N)C(=O)O)cc1[211At] [^211At-AAMT-O-Me-D] ? 2.54

Fill in: Tissue distribution, Colon of COc1ccc(C[C@](C)(N)C(=O)O)cc1[211At] [^211At-AAMT-O-Me-L] is ___ 0.93

Quick one: Tissue distribution, Colon for CCCOc1ccc(C[C@](C)(N)C(=O)O)cc1[211At] [^211At-AAMT-O-Pr-L] ? 1.35

Turning to the following compound.
State the recorded Tissue distribution, Colon for this entry: CCOc1ccc(C[C@](C)(N)C(=O)O)cc1[211At] [^211At-AAMT-O-Et-L] 8.32

----------
System: PANC-1 tumor model
Experiment: Tissue distribution in nude mice (PANC-1 tumor model)
Assay type: in vivo, BALB/c nu/nu mice
Conditions: nude mice (PANC-1 tumor model), 1 h after injection
outcome measure: Tissue distribution, Small intestine (%ID/g)
Answers are plain numbers, in %ID/g.

Data request, read-out Tissue distribution, Small intestine, for CCCOc1ccc(C[C@](C)(N)C(=O)O)cc1[211At] [^211At-AAMT-O-Pr-L] 5.08

Returns the measured Tissue distribution, Small intestine for the input compound. Input: CCOc1ccc(C[C@](C)(N)C(=O)O)cc1[211At] [^211At-AAMT-O-Et-L] 4.80

Entry under review: COc1ccc(C[C@@](C)(N)C(=O)O)cc1[211At] [^211At-AAMT-O-Me-D] . Reported Tissue distribution, Small intestine? 2.05

Here's the next entry for you.
Form field: reported Tissue distribution, Small intestine of COc1ccc(C[C@](C)(N)C(=O)O)cc1[211At] [^211At-AAMT-O-Me-L] 3.40

----------
Tested on: PANC-1 tumor model
Experiment: Tissue distribution in nude mice (PANC-1 tumor model)
Format: in vivo, BALB/c nu/nu mice
Conditions: nude mice (PANC-1 tumor model), 1 h after injection
Description: BALB/c nu/nu mice (male, 5 weeks old) were purchased from Japan SLC (Shizuoka, Japan) and subcutaneously transplanted at a density of 1 × 10^7 cells/mouse. PANC-1 cells that reached the logarithmic growth phase were transplanted subcutaneously by mixing a 1 × 10^8 cells/mL cell suspension with an equivalent volume of Matrigel (Corning, Corning, NY, USA) to obtain 1 × 10^7 cells per mouse. Experiments were performed after the size of the transplanted tumor had exceeded 50 mm^3. […]
Please go through the items and note down their Tissue distribution, Colon.
Numbers only, in %ID/g.

Returns the measured Tissue distribution, Colon for the input molecule. Input: COc1ccc(C[C@](C)(N)C(=O)O)cc1[211At] [^211At-AAMT-O-Me-L] 1.14

Which measured Tissue distribution, Colon value corresponds to CCOc1ccc(C[C@](C)(N)C(=O)O)cc1[211At] [^211At-AAMT-O-Et-L] ? 3.80

Could you share which Tissue distribution, Colon value was measured for COc1ccc(C[C@@](C)(N)C(=O)O)cc1[211At] [^211At-AAMT-O-Me-D] ? 0.85

Continuing:
Find the recorded Tissue distribution, Colon belonging to CCCOc1ccc(C[C@](C)(N)C(=O)O)cc1[211At] [^211At-AAMT-O-Pr-L] and report it. 3.27

----------
Assay: Tissue distribution in ICR mice (normal animals)
Format: in vivo
Settings: 3 h after injection
Give measured Tissue distribution, Colon for each item. Keep answers brief.
Answers are plain numbers, in %ID/g.

Recorded Tissue distribution, Colon of COc1ccc(C[C@](C)(N)C(=O)O)cc1[211At] [^211At-AAMT-O-Me-L] , please. 0.80

Requested field: Tissue distribution, Colon. Item: COc1ccc(C[C@@](C)(N)C(=O)O)cc1[211At] [^211At-AAMT-O-Me-D] 0.95

I am curious: what Tissue distribution, Colon value has been reported for CCCOc1ccc(C[C@](C)(N)C(=O)O)cc1[211At] [^211At-AAMT-O-Pr-L] ? 1.29

Below: the item to evaluate.
Can you look up the measured Tissue distribution, Colon of CCOc1ccc(C[C@](C)(N)C(=O)O)cc1[211At] [^211At-AAMT-O-Et-L] for me? 1.75

----------
Assay: Tissue distribution in ICR mice (normal animals)
Assay type: in vivo
Settings: 3 h after injection
Assign Tissue distribution, Cecum to each entry below.
One number for each entry, in %ID/g.

Which measured Tissue distribution, Cecum value corresponds to CCOc1ccc(C[C@](C)(N)C(=O)O)cc1[211At] [^211At-AAMT-O-Et-L] ? 1.67

Name the recorded Tissue distribution, Cecum for COc1ccc(C[C@](C)(N)C(=O)O)cc1[211At] [^211At-AAMT-O-Me-L] . 0.95

Sample COc1ccc(C[C@@](C)(N)C(=O)O)cc1[211At] [^211At-AAMT-O-Me-D] — what was its Tissue distribution, Cecum? 0.50

Kindly consider the entry below.
Which measured Tissue distribution, Cecum value corresponds to CCCOc1ccc(C[C@](C)(N)C(=O)O)cc1[211At] [^211At-AAMT-O-Pr-L] ? 1.13

----------
Test system: PANC-1 tumor model
Assay: Tissue distribution in nude mice (PANC-1 tumor model)
Assay type: in vivo, BALB/c nu/nu mice
Conditions: nude mice (PANC-1 tumor model), 1 h after injection
Would you kindly list Tissue distribution, Bone for each of these compounds?
Answers are plain numbers, in %ID/g.

Some compounds with recorded Tissue distribution, Bone:
Which Tissue distribution, Bone value is on record for CCOc1ccc(C[C@](C)(N)C(=O)O)cc1[211At] [^211At-AAMT-O-Et-L] ? 1.92

# lookup: Tissue distribution, Bone of CCCOc1ccc(C[C@](C)(N)C(=O)O)cc1[211At] [^211At-AAMT-O-Pr-L] 2.03

Would you kindly share the measured Tissue distribution, Bone for COc1ccc(C[C@@](C)(N)C(=O)O)cc1[211At] [^211At-AAMT-O-Me-D] ? 0.30

Field: next compound
Form field: reported Tissue distribution, Bone of COc1ccc(C[C@](C)(N)C(=O)O)cc1[211At] [^211At-AAMT-O-Me-L] 0.68

----------
Assay: Tissue distribution in ICR mice (normal animals)
Format: in vivo
Conditions: 3 h after injection
outcome measure: Tissue distribution, Pancreas (%ID/g)
One number for each entry, in %ID/g.

Before answering, review these 3 worked examples.
// query Tissue distribution, Pancreas value for entry COc1ccc(C[C@@](C)(N)C(=O)O)cc1[211At] [^211At-AAMT-O-Me-D] 0.42

Param item = COc1ccc(C[C@](C)(N)C(=O)O)cc1[211At] [^211At-AAMT-O-Me-L] ; retrieve measured Tissue distribution, Pancreas. 0.19

Fill in: Tissue distribution, Pancreas of CCOc1ccc(C[C@](C)(N)C(=O)O)cc1[211At] [^211At-AAMT-O-Et-L] is ___ 1.20

Others:
Which Tissue distribution, Pancreas value belongs to CCCOc1ccc(C[C@](C)(N)C(=O)O)cc1[211At] [^211At-AAMT-O-Pr-L] ? 1.60

Reference source for all entries: paper PMC11594329
